Recorded KD ratio to GLS3000, one value per entry.
Biological target: T1, CD3 epsilon homodimer protein (UniProt P07766 23-126)
T1 construct: also called CD3 (CD3 epsilon)
T1 sequence (P07766 23-126): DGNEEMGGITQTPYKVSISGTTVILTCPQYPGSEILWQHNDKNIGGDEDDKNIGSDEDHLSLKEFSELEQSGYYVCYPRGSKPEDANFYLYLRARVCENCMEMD
Test: SPR, antibody over immobilised CD3e homodimer;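 also: SPR at 25 °C with CD3 epsilon homodimer amine-coupled to a CM4 sensor chip and antibody flowed over as analyte in HBS-EP+ running buffer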
Form: value (number only, do not type unit).

# BINDER, KD ratio to GLS3000
data = [
    ("CE115HA000/GLS3000 K50A (antibody, IgG1, name in Kabat numbering, V domains shown, one-arm IgG1) VH: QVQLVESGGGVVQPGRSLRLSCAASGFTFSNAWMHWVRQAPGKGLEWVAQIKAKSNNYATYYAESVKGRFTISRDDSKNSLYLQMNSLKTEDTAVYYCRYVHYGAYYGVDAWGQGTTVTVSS VL: DIVMTQSPLSLPVTPGEPASISCRSSQSLVHSNRNTYLHWYQQKPGQAPRLLIYAVSNRFSGVPDRFSGSGSGTDFTLKISRVEAEDVGVYYCGQGTQVPYTFGQGTKLEIK", 59.5),
]

Next binder, KD ratio to GLS3000 to be filled in.
I would be grateful if you could share the reported KD ratio to GLS3000 for CE115HA000/GLS3000 R29T (antibody, IgG1, name in Kabat numbering, V domains shown, one-arm IgG1) VH: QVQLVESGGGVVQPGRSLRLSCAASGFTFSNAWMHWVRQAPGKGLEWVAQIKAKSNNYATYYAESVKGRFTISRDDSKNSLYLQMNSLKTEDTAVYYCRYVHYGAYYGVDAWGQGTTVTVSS VL: DIVMTQSPLSLPVTPGEPASISCRSSQSLVHSNTNTYLHWYQQKPGQAPRLLIYKVSNRFSGVPDRFSGSGSGTDFTLKISRVEAEDVGVYYCGQGTQVPYTFGQGTKLEIK .
1.02
